target: Alpha-galactosidase A (Homo sapiens, UniProt P06280); assay: Inhibition of human recombinant lysosomal alpha-GalA using 4-methylumbelliferyl-[…] as substrate preincubated for 45 mins followed by substrate addition and measured after 30 mins by fluorescence spectrophotometric assay
Sequence (P06280 whole entry): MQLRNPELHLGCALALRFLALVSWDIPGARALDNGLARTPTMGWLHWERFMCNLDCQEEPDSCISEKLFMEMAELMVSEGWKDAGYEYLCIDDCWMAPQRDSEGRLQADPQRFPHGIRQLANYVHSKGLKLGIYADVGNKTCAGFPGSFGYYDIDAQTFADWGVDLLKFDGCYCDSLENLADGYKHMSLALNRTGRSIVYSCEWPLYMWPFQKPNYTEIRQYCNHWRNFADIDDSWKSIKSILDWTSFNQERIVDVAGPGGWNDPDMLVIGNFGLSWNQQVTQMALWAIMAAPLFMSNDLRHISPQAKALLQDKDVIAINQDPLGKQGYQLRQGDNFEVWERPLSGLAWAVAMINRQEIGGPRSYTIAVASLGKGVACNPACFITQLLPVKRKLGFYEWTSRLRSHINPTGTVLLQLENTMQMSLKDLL
pIC50: −log10 of the molar value.
Listed here are molecules together with their documented pIC50.
recorded_metric: pIC50

# substance_smiles, endpoint_result
rows = [
    ("NC(COCc1cn(CCCc2cn(C[C@H]3NC[C@@H](O)[C@H]3O)nn2)nn1)(COCc1cn(CCCc2cn(C[C@H]3NC[C@@H](O)[C@H]3O)nn2)nn1)COCc1cn(CCCc2cn(C[C@H]3NC[C@@H](O)[C@H]3O)nn2)nn1", 3.51),
    ("O=C(CCCCC(=O)NC(COCc1cn(CCCc2cn(C[C@H]3NC[C@@H](O)[C@H]3O)nn2)nn1)(COCc1cn(CCCc2cn(C[C@H]3NC[C@@H](O)[C@H]3O)nn2)nn1)COCc1cn(CCCc2cn(C[C@H]3NC[C@@H](O)[C@H]3O)nn2)nn1)NC(COCc1cn(CCCc2cn(C[C@H]3NC[C@@H](O)[C@H]3O)nn2)nn1)(COCc1cn(CCCc2cn(C[C@H]3NC[C@@H](O)[C@H]3O)nn2)nn1)COCc1cn(CCCc2cn(C[C@H]3NC[C@@H](O)[C@H]3O)nn2)nn1", 4.52),
]
